Cited source for all entries: patent US12139520B2

Collected hAM1R EC50 (cAMP) values appear next to each entry.
target: hAM1R (human, UniProt Q16602); assay: cell-based or functional assay
Bridge positions count the residues as written; N and C are the ends. Square brackets hold non-standard residues; d marks the D form. Ends that are not written are not given here. Hyp = O=C(O)[C@@H]1C[C@@H](O)CN1; Cit = NC(=O)NCCC[C@H](N)C(=O)O
Write the number in nM without appending the unit.

GCRFGTCTVQWLAHQIYQFTDKDKDNVAPRSKVGPQG[Hyp]-NH2 (disulfide 2-7 (inferred); ends not checked) [SEQ ID NO: 353]: 2920
KCNTATCTVQ[Cit]LAHQIYQFTDKDKDNVAPRTKVGSNGY-NH2 (disulfide 2-7 (inferred); ends not checked) [SEQ ID NO: 257]: 2040
GCRTGTCTVQRLAHQIYQFTDKDKDNVAPRTNVSPNG[Hyp]-NH2 (disulfide 2-7 (inferred); ends not checked) [SEQ ID NO: 163]: 2980

Kindly consider the entry below.
Data point: GCRFGTCTVQRLAHQIYQFTDKDKDNVAPRTNIGPNG[Hyp]-NH2 (disulfide 2-7 (inferred); ends not checked) [SEQ ID NO: 81] ; hAM1R EC50 (cAMP) = 138
